METHOD_SUMMARY: Drug metabolism properties (pharmacokinetics) in dogs
Format: in vivo
SETUP_CONDITIONS: both sexes, plasma; dog, intravenous injection/oral gavage; read-out: Oral bioavailability F % (dog)
Items are presented alongside their recorded bioavailability.

>  <COMPOUND>
Cc1nonc1C(=O)N[C@H](C(=O)Nc1ccc(-c2c(C)n[nH]c2C)cc1)C1c2ccc(F)cc2OCC12CC2 (some centres unmarked)

>  <bioavailability>
27%

$$$$
>  <COMPOUND>
Cc1n[nH]c(C)c1-c1ccc(NC(=O)[C@@H](NC(=O)c2nonc2C2CC2)C2c3cc(F)c(F)cc3OCC23CC3)cc1 (some centres unmarked)

>  <bioavailability>
20%

$$$$
>  <COMPOUND>
CCc1nonc1C(=O)N[C@H](C(=O)Nc1ccc(-c2c(C)n[nH]c2C)cc1)C1c2cc(F)c(F)cc2OCC12CC2 (some centres unmarked)

>  <bioavailability>
18%

$$$$
>  <COMPOUND>
CCc1nonc1C(=O)N[C@H](C(=O)Nc1ccc(-c2c(C)n[nH]c2C)cc1)C1c2ccc(F)c(F)c2OCC12CC2 (some centres unmarked)

>  <bioavailability>
16%

$$$$
>  <COMPOUND>
Cc1n[nH]c(C)c1-c1ccc(NC(=O)[C@@H](NC(=O)c2ccnn2C(C)C)C2c3ccc(F)cc3OCC23CC3)cn1 (some centres unmarked)

>  <bioavailability>
41%

$$$$

====

METHOD_SUMMARY: Drug metabolism properties (pharmacokinetics) in rats
Assay type: in vivo
SETUP_CONDITIONS: plasma; rat, intravenous injection/oral gavage; read-out: Oral bioavailability F % (rat)
Kind request: treat 20% as inclusive, so bioavailability at 20% or higher is TRUE, anything lower is FALSE.

>  <COMPOUND>
Cc1nonc1C(=O)N[C@H](C(=O)Nc1ccc(-c2c(C)n[nH]c2C)cc1)C1c2ccc(F)cc2OCC12CC2 (stereo partly drawn) [Compound 24]

>  <CLASS_NAME>
TRUE

$$$$
>  <COMPOUND>
CCc1nonc1C(=O)N[C@H](C(=O)Nc1ccc(-c2c(C)n[nH]c2C)cc1)C1c2ccc(F)c(F)c2OCC12CC2 (stereo partly drawn) [Compound 58]

>  <CLASS_NAME>
TRUE

$$$$
>  <COMPOUND>
Cc1n[nH]c(C)c1-c1ccc(NC(=O)[C@@H](NC(=O)c2ccnn2C(C)C)C2c3ccc(F)cc3OCC23CC3)cn1 (stereo partly drawn) [Compound 18]

>  <CLASS_NAME>
FALSE

$$$$
>  <COMPOUND>
CCc1nonc1C(=O)N[C@H](C(=O)Nc1ccc(-c2c(C)n[nH]c2C)nc1)C1c2ccc(F)cc2OCC12CC2 (stereo partly drawn) [Compound 26]

>  <CLASS_NAME>
FALSE

$$$$
>  <COMPOUND>
Cc1n[nH]c(C)c1-c1ccc(NC(=O)[C@@H](NC(=O)c2nonc2C2CC2)C2c3cc(F)c(F)cc3OCC23CC3)cc1 (stereo partly drawn) [Compound 49]

>  <CLASS_NAME>
FALSE

$$$$
>  <COMPOUND>
CCc1nonc1C(=O)N[C@H](C(=O)Nc1ccc(-c2c(C)n[nH]c2C)cc1)C1c2cc(F)c(F)cc2OCC12CC2 (stereo partly drawn) [Compound 43]

>  <CLASS_NAME>
TRUE

$$$$

====

ASSAYED_TARGET: hIL-17A (Homo sapiens, UniProt Q16552)
Sequence (Q16552 20-155 limits assumed): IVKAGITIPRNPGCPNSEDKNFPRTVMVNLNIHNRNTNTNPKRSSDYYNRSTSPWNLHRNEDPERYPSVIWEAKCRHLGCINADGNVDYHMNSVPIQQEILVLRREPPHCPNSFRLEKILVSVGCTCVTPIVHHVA
METHOD_SUMMARY: Inhibition of hIL-17A-induced chemokine GROα/CXCL1 production in HT-29 cell
pIC50: −log10 of the molar value.
Threshold check on pIC50: at or above 7 gives Satisfied, strictly below gives Not satisfied.

>  <MOLECULE>
Cc1n[nH]c(C)c1-c1ccc(NC(=O)[C@@H](NC(=O)c2ccnn2C(C)C)C2c3ccc(F)c(F)c3OCC23CC3)cc1 (stereo partly drawn) [Compound 56]

>  <ASSAYED_TARGET>
hIL-17A (Homo sapiens, UniProt Q16552)

>  <CLASS_NAME>
Not satisfied

$$$$
>  <MOLECULE>
Cc1n[nH]c(C)c1-c1ccc(NC(=O)[C@@H](NC(=O)c2ccnn2C(C)C)C2c3cc(F)ccc3OCC23CC3)cn1 (stereo partly drawn) [Compound 20]

>  <ASSAYED_TARGET>
hIL-17A (Homo sapiens, UniProt Q16552)

>  <CLASS_NAME>
Not satisfied

$$$$
>  <MOLECULE>
Cc1n[nH]c(C)c1-c1ccc(NC(=O)[C@@H](NC(=O)c2conc2C2CC2)C2c3cc(F)c(F)cc3OCC23CC3)cn1 (stereo partly drawn) [Compound 97]

>  <ASSAYED_TARGET>
hIL-17A (Homo sapiens, UniProt Q16552)

>  <CLASS_NAME>
Not satisfied

$$$$
>  <MOLECULE>
CCc1nonc1C(=O)N[C@H](C(=O)Nc1ccc(-c2c(C)n[nH]c2C)cc1)C1c2cc(F)c(F)cc2OCC12CC2 (stereo partly drawn) [Compound 43]

>  <ASSAYED_TARGET>
hIL-17A (Homo sapiens, UniProt Q16552)

>  <CLASS_NAME>
Satisfied

$$$$
>  <MOLECULE>
Cc1n[nH]c(C)c1-c1ccc(NC(=O)[C@@H](NC(=O)c2ccnn2C(C)C)C2c3cc(F)c(F)cc3OCC23CC3)cn1 (stereo partly drawn) [Compound 62]

>  <ASSAYED_TARGET>
hIL-17A (Homo sapiens, UniProt Q16552)

>  <CLASS_NAME>
Not satisfied

$$$$

Measured values drawn from patent US20230227437A1 for this set.
